B1: LINE1-full (parent)
chain: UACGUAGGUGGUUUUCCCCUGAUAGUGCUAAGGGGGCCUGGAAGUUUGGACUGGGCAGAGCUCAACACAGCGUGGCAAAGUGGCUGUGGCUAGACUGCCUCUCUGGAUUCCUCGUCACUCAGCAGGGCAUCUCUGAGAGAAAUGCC

Variants of: B1
Test: self-cleavage, relative activity (ratio to wild type); higher = more cleavage; in vitro, sequencing; the parent is a self-cleaving ribozyme
self-cleavage overview
measured.metric: self-cleavage

# mutation.list, measured.metric, observed.result
rows = [
    ("A67G U96A", "self-cleavage", 0.06),
    ("U91G A94G", "self-cleavage", 0),
    ("G33U C90G", "self-cleavage", 0.07),
    ("U47G G135A", "self-cleavage", 0.79),
]
